Experiment: Light resistance of light absorption anisotropic film (change in intensity of absorption)
Type: physicochemical
Details: light absorption anisotropic film irradiated with 10 mW of light while heated from room temperature to 200° C.; change in intensity of absorption
MEASURED ATTRIBUTE: Light resistance

CCCCCCOc1ccc(N=Nc2ccc(C=Cc3cc(OCCOCCOCCOC)c(C=Cc4ccc(N=Nc5ccc(OCCCCCC)cc5)cc4)cc3OCCOCCOCCOC)cc2)cc1 ... Good
CCCCCCOc1ccc(/C=C/c2ccc(/C=C/c3cc(OCCOCCOCCOCCOCCOCCO)c(/C=C/c4ccc(/C=C/c5ccc(OCCCCCC)cc5)cc4)cc3OC)cc2)cc1 [Comparative Compound 2, reference compound] ... Poor
CCCCCCOc1ccc(N=Nc2ccc(C=Cc3cc(OCCOCCOCCO)c(C=Cc4ccc(N=Nc5ccc(OCCCCCC)cc5)cc4)cc3OC)cc2)cc1 ... Good
CCCCCCCCCCCCCCCCCCOc1cc(C=Cc2ccc(N=Nc3ccc(OCCCCCC)cc3)cc2)c(OC)cc1C=Cc1ccc(N=Nc2ccc(OCCCCCC)cc2)cc1 ... Good

Could you share which Light resistance value was measured for `CCCCCCOc1ccc(N=Nc2ccc(C=Cc3cc(OCCOCCOCCOC)c(C=Cc4ccc(N=Nc5ccc(OCCCCCC)cc5)cc4)cc3OC)cc2)cc1` ?
Good

The values you see were collected from patent US9011988B2.
